# Subject Of Test: c-Met kinase domain recombinant protein (Homo sapiens)
# Construct: 50 μL diluted solution of c-Met kinase domain recombinant protein in reaction buffer was added to initiate the reaction
# Protocol Summary: biochemical
# Condition Info: read-out: Average inhibition rate at 1 μM (%)
Observed Property: inhibition at 1 µM (%)

CC(C)(C)OC(=O)N1CCC(n2cc(-c3cnc4cnn(S(=O)(=O)c5cnc6ccccn56)c4c3)cn2)CC1 :: 78.6
COc1ccccc1-c1ccc2ncc(S(=O)(=O)n3ncc4ncc(-c5cnn(C)c5)cc43)n2c1 :: 62.7
CC(C)(C)OC(=O)N1CCC(n2cc(-c3cnc4cnn(S(=O)(=O)c5cnc6cccnn56)c4c3)cn2)CC1 :: 74.5
CN1CCN(C(=O)c2ccc(-c3ccc4ncc(S(=O)(=O)n5ncc6ncc(-c7cnn(C)c7)cc65)n4c3)cc2)CC1 :: 47.5
CC(C)(C)OC(=O)N1CCC(n2cc(-c3cnc4cnn(S(=O)(=O)c5cnc6ccc(C(F)(F)F)cn56)c4c3)cn2)CC1 :: 60.4

----------
# Subject Of Test: c-Met kinase domain recombinant protein (Homo sapiens, UniProt P08581)
# Construct: 50 μL diluted solution of c-Met kinase domain recombinant protein in reaction buffer was added to initiate the reaction
# Sequence (P08581 1078-1345 limits assumed): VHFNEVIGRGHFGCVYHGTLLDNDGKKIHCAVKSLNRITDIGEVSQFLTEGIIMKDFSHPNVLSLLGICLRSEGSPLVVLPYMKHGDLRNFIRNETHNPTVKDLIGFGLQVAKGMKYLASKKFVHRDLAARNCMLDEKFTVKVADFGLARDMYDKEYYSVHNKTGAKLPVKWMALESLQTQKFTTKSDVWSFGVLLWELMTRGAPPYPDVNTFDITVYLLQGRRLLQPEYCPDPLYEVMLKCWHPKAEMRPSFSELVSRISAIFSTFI
# Protocol Summary: biochemical
# Condition Info: read-out: Average inhibition rate at 0.1 μM (%)
Observed Property: inhibition at 0.1 µM (%)

CNC(=O)c1ccc(-c2ccc3ncc(S(=O)(=O)n4ncc5ncc(-c6cnn(C)c6)cc54)n3c2)cc1F [Example 101] :: 100
Cn1cc(-c2cnc3cnn(S(=O)(=O)c4cnc5ccc(-c6cnn(C7CCN(C(=O)OC(C)(C)C)CC7)c6)cn45)c3c2)cn1 [Example 76] :: 78
Cn1cc(-c2cnc3cnn(S(=O)(=O)c4cnc5ccc(-c6ccc(Cl)cc6)cn45)c3c2)cn1 [Example 94] :: 72.1
Cn1cc(-c2ccc3ncc(S(=O)(=O)n4ncc5ncc(C6=CCNCC6)cc54)n3c2)cn1 [Example 139] :: 90.3
CC(C)(C)OC(=O)N1CCC(n2cc(-c3cnc4cnn(S(=O)(=O)c5cnc6ccccn56)c4c3)cn2)CC1 [Example 44] :: 74.6
Cn1cc(-c2cnc3cnn(S(=O)(=O)c4cnc5ccc(-c6cn[nH]c6)cn45)c3c2)cn1 [Example 105] :: 97.8
Cn1cc(-c2cnc3cnn(S(=O)(=O)c4cnc5ccc(-c6cccc(C#N)c6)cn45)c3c2)cn1 [Example 100] :: 83.7
Cn1cc(-c2cnc3cnn(S(=O)(=O)c4cnc5ccccn45)c3c2)cn1 [Compound 19] :: 59.2

----------
# Subject Of Test: c-Met kinase domain recombinant protein (Homo sapiens, UniProt P08581)
# Construct: 50 μL diluted solution of c-Met kinase domain recombinant protein in reaction buffer was added to initiate the reaction
# Protocol Summary: biochemical
Observed Property: IC50 (nM)

CC(C)c1c(-c2cnn(C)c2)cnc2cnn(S(=O)(=O)c3cnc4ccc(-c5cnn(C)c5)cn34)c12 :: 3.2

(I) Cn1cc(-c2cnc3cnn(S(=O)(=O)c4cnc5ccc(Cl)nn45)c3c2)cn1
(II) Cn1cc(-c2cnc3cnn(S(=O)(=O)c4cnc5ccc(-c6cn[nH]c6)cn45)c3c2)cn1
(III) CC(C)N1CCC(n2cc(-c3cnc4cnn(S(=O)(=O)c5cnc6ccc(-c7cnn(C)c7)cn56)c4c3)cn2)CC1
Sort (3 compounds) by IC50: min first. Use the labels to give the ranking in the order requested.
III, II, I
(III: 0.6 nM, II: 2.6 nM, I: 21.3 nM)
